Exercise: for every item that follows, state its recorded Human GIPR cAMP, HEK293T EC50.
- experimentalTarget: T1, full-length human GIPR with an N-terminal FLAG tag, overexpressed on HEK-293T cells (human, UniProt P48546 22-466)
- T1 sequence (looked up): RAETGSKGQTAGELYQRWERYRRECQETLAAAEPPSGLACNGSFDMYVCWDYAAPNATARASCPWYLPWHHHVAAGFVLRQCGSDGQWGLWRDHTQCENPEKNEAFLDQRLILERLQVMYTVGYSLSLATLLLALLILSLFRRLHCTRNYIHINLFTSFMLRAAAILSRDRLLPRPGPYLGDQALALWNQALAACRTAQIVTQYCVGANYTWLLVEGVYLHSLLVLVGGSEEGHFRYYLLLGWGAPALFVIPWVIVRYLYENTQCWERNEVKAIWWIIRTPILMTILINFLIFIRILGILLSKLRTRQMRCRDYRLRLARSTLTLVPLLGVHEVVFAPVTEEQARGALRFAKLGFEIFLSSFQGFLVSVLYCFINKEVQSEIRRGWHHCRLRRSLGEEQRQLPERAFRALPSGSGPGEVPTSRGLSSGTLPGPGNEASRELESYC
- procedureDetails: cell-based or functional assay
Non-standard residues stand in square brackets, D forms with d. Aib = CC(C)(N)C(=O)O
One number for each entry, in pM.

Here's what some known entries look like.
binder	Human GIPR cAMP, HEK293T EC50 / pM
YXEGTFISDYSIAXDRXAQXDFVNWLLAQSPSSGAPG (N-terminal Me (Me-Tyr1); Aib at 2, 17, 20; Km = Lys(R) at 14, linker printed GS (read as G5 = GGGGG), lipid C15DA (C15 diacid); C-terminal OH) [Compound 157]	0.1
Me-Y[Aib]EGTFISDYSIALDR[Aib]KQ[Aib]DFVNWLLAQSG-OH (not fully specified (residues 1, 18)) [Compound 170]	0.4

Next up:
Data request, read-out Human GIPR cAMP, HEK293T EC50, for Me-Y[Aib]EGTFISDYSIALDR[Aib]AQ[Aib]KFVNWLLAQKG-OH (not fully specified (residues 1, 21)) [Compound 204]
0.8
